Values compiled from PubChem BioAssay AID1259407.

# System: CCRIS mutagenicity, Ames/micronucleus/aberration tests
# method: CCRIS mutagenicity studies
# condition.parameters: Test System: AMES SALMONELLA TYPHIMURIUM; Strain/Indicator: TA100; Metabolic Activation: NONE; Method: STANDARD PLATE
Active and inactive are the calls of the source. The rule behind the calls is not given here.
Hi there, use one of these labels in your reply, thanks! active, inactive

Worked examples follow.
compound.structure	system.tested	classification
CC(C)c1cc(N)cc([N+](=O)[O-])c1N	CCRIS mutagenicity, Ames/micronucleus/aberration tests	inactive
[O]c1nccc(=O)[nH]1	CCRIS mutagenicity, Ames/micronucleus/aberration tests	active
CNC[C@H](O)[C@@H](O)[C@H](O)[C@H](O)CO.CNC[C@H](O)[C@@H](O)[C@H](O)[C@H](O)CO.O=C([O-])CN(CCN(CC(=O)[O-])CC(=O)[O-])CCN(CC(=O)[O-])[C@H](COCc1ccccc1)C(=O)[O-].[Gd+3].[H+].[H+]	CCRIS mutagenicity, Ames/micronucleus/aberration tests	inactive
CC1=CC(=O)CC(C)(C)C1	CCRIS mutagenicity, Ames/micronucleus/aberration tests	inactive
Nc1ccc2[nH]c3ccccc3c2c1[N+](=O)[O-]	CCRIS mutagenicity, Ames/micronucleus/aberration tests	active

Would you kindly look at the next entry?
### Prompt Any idea what this test logged for Cc1ccccc1Cl ?
### Response inactive

* * *

# Tested on: CCRIS mutagenicity, Ames/micronucleus/aberration tests
# method: CCRIS mutagenicity studies
# condition.parameters: Test System: AMES SALMONELLA TYPHIMURIUM; Strain/Indicator: TA1537; Metabolic Activation: RAT, LIVER, S-9, AROCLOR 1254; Method: STANDARD PLATE
The source made the active and inactive calls. The rule behind the calls is not given here.

molecule	mutagenic call
CC1=CC(=O)CC(C)(C)C1	inactive; negative
O=C1N=NC(=O)C2C=CC=CC12 (stereo not drawn)	inactive; negative

* * *

# System: CCRIS mutagenicity, Ames/micronucleus/aberration tests
# method: CCRIS mutagenicity studies
# condition.parameters: Test System: AMES SALMONELLA TYPHIMURIUM; Strain/Indicator: TA100; Metabolic Activation: NONE; Method: STANDARD PLATE
Calls of active or inactive are those of the source. No rule for the calls is given here.
property.name: mutagenic call

Below: 10 molecules and their reported mutagenic call.
molecule	reported.result
O=[N+]([O-])c1ccc(/C=C/c2cccc([N+](=O)[O-])c2)cc1	active; positive
Cc1cccc(C)c1N=Nc1c(O)ccc2ccccc12	inactive; negative
O=C1OCC(Br)=C1Br	active; positive
CN(C)c1ccc(C(c2ccccc2)c2ccc(N(C)C)cc2)cc1	inactive; negative
CC[C@@]1(O)C[C@H](O)c2c(cc3c(c2O)C(=O)c2c(O)cccc2C3=O)[C@H]1C(=O)OC	inactive; negative
O=C1c2ccc(O)cc2C(=O)c2ccc(O)cc21	inactive; negative
CCCCC1C(=O)N(c2ccccc2)N(c2ccc(O)cc2)C1=O (stereo not given)	inactive; negative
OC/C=C/c1ccccc1	inactive; negative
Nc1cc([N+](=O)[O-])c(N)cc1Cl	inactive; negative
O=Nc1ccccc1-c1ccccc1	active; positive

Quick batch: mutagenic call for everything below.
1. CCC(=O)C(=O)CC
2. Cc1cc(C(C)(C)C)c(O)c(C(C)(C)C)c1
3. CC1(C2CO2)CO1 (stereo not given)

### Response
["active; positive", "inactive; negative", "active; positive"]

Provide mutagenic call values for the following items, in order.
1. Cc1ccc(S(=O)(=O)NN)cc1
2. c1ccc2sc(SNC3CCCCC3)nc2c1
3. O=C(/C=C/c1ccccc1)c1ccc([N+](=O)[O-])cc1
4. CN(C)CCc1cc(O)ccc1CNc1ccccn1

### Response
1: active; positive; 2: inactive; negative; 3: inactive; negative; 4: inactive; negative

Value sought for every listed molecule: mutagenic call.
1. C#C[C@]1(O)CC[C@H]2[C@@H]3CCc4cc(O)ccc4[C@H]3CC[C@@]21C
2. O=[N+]([O-])c1ccc2c(c1)nc(/C=N/OCc1ccccc1[N+](=O)[O-])n2Cc1ccc(Cl)cc1Cl
3. CCCC[C@@H](C)[C@@H](OC(=O)C[C@@H](CC(=O)O)C(=O)O)[C@H](C[C@@H](C)C[C@H](O)CCCC[C@@H](O)C[C@H](O)[C@H](C)N)OC(=O)C[C@@H](CC(=O)O)C(=O)O
4. O=C(OCc1ccc(Cl)cc1Cl)c1cccc2cccnc12
5. O=[N+]([O-])c1ccc(Cl)cc1Cl

### Response
inactive; negative
active; positive
inactive; negative
inactive; negative
inactive; negative

For every record below, what is its mutagenic call?
1. Cn1cnc2c(N)ncnc21
2. C=CC(=O)O
3. Cc1cccc2c1ccc1ccccc12

### Response
inactive; negative
inactive; negative
inactive; negative
